- Tested on: A549
- experimentalDetails: Cytotoxicity against A549 tumor cell line determined by WST-1 assay
- Assay type: functional, cell-based
- conditionDescription: Homo sapiens
pIC50 overview
// pIC50 is dimensionless: -log10 of concentration (M)

Some solved cases for reference:
CC[C@@]1(O)CC(=O)OCc2c1cc1n(c2=O)Cc2cc3cccc(F)c3nc2-1 = 6.89
CC[C@@]1(O)CC(=O)OCc2c1cc1n(c2=O)Cc2cc3cc(F)c(F)cc3nc2-1 = 8.47
CC[C@@]1(O)CC(=O)OCc2c1cc1n(c2=O)Cc2cc3ccc(F)cc3nc2-1 = 8.54
CC[C@@]1(O)C(=O)OCc2c1cc1n(c2=O)Cc2cc3ccccc3nc2-1 = 7.17
CC[C@@]1(O)CC(=O)OCc2c1cc1n(c2=O)Cc2cc3c(F)cccc3nc2-1 = 7.77

Quick note, pIC50 for CC[C@@]1(O)CC(=O)OCc2c1cc1n(c2=O)Cc2cc3c(F)cc(F)cc3nc2-1 landed at 8.72

Quick note, pIC50 for CC[C@@]1(O)CC(=O)OCc2c1cc1n(c2=O)Cc2cc3cc(F)ccc3nc2-1 landed at 7.66

Quick note, pIC50 for CC[C@@]1(O)CC(=O)OCc2c1cc1n(c2=O)Cc2cc3ccccc3nc2-1 landed at 7.59
